- Test summary: T1 relaxivity at 20 MHz, 37°C
- Type: physicochemical
- Experimental parameters: Humanplasma

{"Compound": "CCN(CC(=O)NCC(O)CN1CCN(CC(=O)[O-])CCN(CC(=O)[O-])CCN(CC(=O)[O-])CC1)S(=O)(=O)C(F)(F)C(F)(F)C(F)(F)C(F)(F)C(F)(F)C(F)(F)C(F)(F)C(F)(F)F.[Gd+3] (stereo not shown)", "T1-Relaxivität": "49 L/mmol/s"}
{"Compound": "O=C([O-])CN1CCN(CC(=O)[O-])CCN(CC(O)COCCC(F)(F)C(F)(F)C(F)(F)C(F)(F)C(F)(F)C(F)(F)C(F)(F)C(F)(F)F)CCN(CC(=O)[O-])CC1.[Gd+3] (stereo not shown)", "T1-Relaxivität": "27,5 L/mmol·sec"}
{"Compound": "O=C([O-])CN1CCN(CC(=O)[O-])CCN(CC(O)CNC(=O)COCCC(F)(F)C(F)(F)C(F)(F)C(F)(F)C(F)(F)C(F)(F)C(F)(F)C(F)(F)F)CCN(CC(=O)[O-])CC1.[Gd+3] (stereo not shown)", "T1-Relaxivität": "33 L/mmol/s"}
{"Compound": "CCN(CC(=O)NCC(O)CN1CCN(CC(=O)[O-])CCN(CC(=O)[O-])CCN(CC(=O)[O-])CC1)S(=O)(=O)C(F)(F)C(F)(F)C(F)(F)C(F)(F)C(F)(F)C(F)(F)C(F)(F)C(F)(F)F.[Mn+2].[Na+] (stereo not shown)", "T1-Relaxivität": "4,2 L/mmol·sec"}

* * *

- Test summary: T1 relaxivity at 20 MHz, 37°C
- Assay type: physicochemical
- Experimental parameters: Wasser
Value kind: T1-Relaxivität (L/mmol/s)

{"Compound": "CCN(CC(=O)NCC(O)CN1CCN(CC(=O)[O-])CCN(CC(=O)[O-])CCN(CC(=O)[O-])CC1)S(=O)(=O)C(F)(F)C(F)(F)C(F)(F)C(F)(F)C(F)(F)C(F)(F)C(F)(F)C(F)(F)F.[Gd+3] (stereo not shown) [Beispiel 1c)]", "Reported": 41}
{"Compound": "O=C([O-])CN1CCN(CC(=O)[O-])CCN(CC(O)CNC(=O)COCCC(F)(F)C(F)(F)C(F)(F)C(F)(F)C(F)(F)C(F)(F)C(F)(F)C(F)(F)F)CCN(CC(=O)[O-])CC1.[Gd+3] (stereo not shown) [2c)]", "Reported": 19}
